Values were extracted from the CheMixHub drug solubility set.

Would you kindly list solubility (g/100 g solution) for each of these molecules?
Assay: xn = mol fraction of the nth substance listed, in the solute-free solvent
Condition Context: 323.15 K; x2 = 0.4

Below, 3 molecules whose answers are already recorded.
>>> print(df.to_string())
                                   molecule                    result_type  result
0  Cl.NC1CCSC1=O (centres undefined) + CO + CC#N  solubility (g/100 g solution)    2.83
1  CC(C)C(=O)Nc1ccc([N+](=O)[O-])c(C(F)(F)F)c1 + CCOC(C)=O + CC(C)O  solubility (g/100 g solution)    61.9
2  CC(C)C(=O)Nc1ccc([N+](=O)[O-])c(C(F)(F)F)c1 + C1CCOC1 + CC(C)O  solubility (g/100 g solution)    68.8

Kindly review the next molecule as well.
Recorded solubility (g/100 g solution) of CC(C)C(=O)Nc1ccc([N+](=O)[O-])c(C(F)(F)F)c1 + CC(C)=O + CC(C)O , please.
68

----------
Assay: xn = mol fraction of the nth substance listed, in the solute-free solvent
Condition Context: 323.15 K; x2 = 0.08908
For each of the compounds below, state its solubility (g/100 g solution).
One number for each entry.

Solved cases below.
                                   compound                    result_type   number
0       Nc1cc(-c2ccncc2)c[nH]c1=O + CCO + O  solubility (g/100 g solution)  0.00642
1        O=C1C=CC(=O)N1c1ccccc1Br + CCO + O  solubility (g/100 g solution)     6.22
2  CC(C)C(=O)Nc1ccc([N+](=O)[O-])c(C(F)(F)F)c1 + CCO + O  solubility (g/100 g solution)    0.148

We next turn to a different compound, shown below.
If you can, please state the reported solubility (g/100 g solution) value of Nc1ncc(Br)nc1Br + CCO + O .
0.188

----------
Hi there, I'd appreciate the recorded solubility (g/100 g solution) for every entry that follows.
Assay: xn = mol fraction of the nth substance listed, in the solute-free solvent
Condition Context: 308.15 K; x2 = 0.2068
Numbers only.

                                   molecule                    result_type  number
0  CC(C)C(=O)Nc1ccc([N+](=O)[O-])c(C(F)(F)F)c1 + CCO + O  solubility (g/100 g solution)    1.04

List the reported solubility (g/100 g solution) of each molecule below.
1. Nc1ncc(Br)nc1Br + CCO + O
2. O=C1C=CC(=O)N1c1ccccc1Br + CCO + O
3. Nc1cc(-c2ccncc2)c[nH]c1=O + CCO + O
4. O=c1cc(CBr)c2ccccc2[nH]1 + CCO + O

0.395
8.18
0.009
0.128

----------
Assay: xn = mol fraction of the nth substance listed, in the solute-free solvent
Condition Context: 303.15 K; x2 = 0.9
Task for the reader: assign each of the following compounds its reported solubility (g/100 g solution).
Answers are plain numbers.

Record excerpt, results attached:
In [3]: df
Out[3]:
                                   compound                    result_type  number
0  Cl.NC1CCSC1=O (centres undefined) + CO + CC#N  solubility (g/100 g solution)    9.23
1  CC(C)C(=O)Nc1ccc([N+](=O)[O-])c(C(F)(F)F)c1 + CC(C)=O + CC(C)O  solubility (g/100 g solution)    67.9
2  CC(C)C(=O)Nc1ccc([N+](=O)[O-])c(C(F)(F)F)c1 + CCOC(C)=O + CC(C)O  solubility (g/100 g solution)    51.1

Now for another entry.
Please report the recorded solubility (g/100 g solution) for CC(C)C(=O)Nc1ccc([N+](=O)[O-])c(C(F)(F)F)c1 + C1CCOC1 + CC(C)O .
68.7
